- experiment description: Tissue concentrations of Formula I and its metabolites in Göttingen pigs after a single oral or intravenous dose (LC-MS/MS)
- Assay type: in vivo
- experimental context: both sexes, Göttingen, pig (minipig), in vivo, 125 mg/kg, lung; single oral dose of Formula I 125 mg/kg; 3 hpd; read-out: Tissue concentration, lung
quantity measured: concentration at 3 h (ng/g)
Kindly provide the numeric value in ng/g only, without the unit symbol.

Task: State its concentration at 3 h: CC(C)OC(=O)[C@H](C)N[P@](=O)(OC[C@H]1O[C@@H](n2ccc(=O)[nH]c2=S)C(C)(O)C1O)Oc1ccccc1 (stereo partly shown)
Result: 38.6

* * *

- experiment description: Tissue concentrations of Formula I and its metabolites in Göttingen pigs after a single oral or intravenous dose (LC-MS/MS)
- Assay type: in vivo
- experimental context: both sexes, Göttingen, pig (minipig); brain; single intravenous bolus of Formula I 25 mg/kg; 12 hpd; read-out: Tissue concentration, brain
quantity measured: concentration at 12 h (ng/g)
Kindly provide the numeric value in ng/g only, without the unit symbol.

Task: State its concentration at 12 h: `C[C@@]1(O)[C@H](O)[C@@H](CO)O[C@H]1n1ccc(=O)[nH]c1=S`
Result: 6.4

* * *

- experiment description: Tissue concentrations of Formula I and its metabolites in Göttingen pigs after a single oral or intravenous dose (LC-MS/MS)
- Assay type: in vivo
- experimental context: both sexes, Göttingen, pig (minipig), in vivo, 125 mg/kg, liver; single oral dose of Formula I 125 mg/kg; 3 hpd; read-out: Tissue concentration, liver
quantity measured: concentration at 3 h (ng/g)
Kindly provide the numeric value in ng/g only, without the unit symbol.

Task: State its concentration at 3 h: CC(C)OC(=O)[C@H](C)N[P@](=O)(OC[C@H]1O[C@@H](n2ccc(=O)[nH]c2=S)C(C)(O)C1O)Oc1ccccc1 (stereo partly shown) [Formula I]
Result: 270

* * *

- experiment description: Tissue concentrations of Formula I and its metabolites in Göttingen pigs after a single oral or intravenous dose (LC-MS/MS)
- Format: in vivo
- experimental context: both sexes, Göttingen, pig (minipig), in vivo, 25 mg/kg, lung; single intravenous bolus of Formula I 25 mg/kg; 2 hpd; read-out: Tissue concentration, lung
quantity measured: concentration at 2 h (ng/g)
Kindly provide the numeric value in ng/g only, without the unit symbol.

Task: State its concentration at 2 h: CC(C)OC(=O)[C@H](C)N[P@](=O)(OC[C@H]1O[C@@H](n2ccc(=O)[nH]c2=S)C(C)(O)C1O)Oc1ccccc1 (stereo partly shown) [Formula I]
Result: 51.8

* * *

Entries and their measured concentration at 24 h follow.
- experiment description: Tissue concentrations of Formula I and its metabolites in Göttingen pigs after a single oral or intravenous dose (LC-MS/MS)
- Type: in vivo
- experimental context: both sexes, Göttingen, pig (minipig); lung; single oral dose of Formula I 125 mg/kg; 24 hpd; read-out: Tissue concentration, lung
For clarity, give the value followed by its unit.

compound | concentration at 24 h
C[C@@]1(O)[C@H](O)[C@@H](CO)O[C@H]1n1ccc(=O)[nH]c1=S | 242 ng/g

// below: concentration at 24 h requested for another compound
Task: State its concentration at 24 h: C[C@H](NP(=O)(O)OC[C@H]1O[C@@H](n2ccc(=O)[nH]c2=S)C(C)(O)C1O)C(=O)O (stereo in doubt)
Result: 2.25 ng/g
